system: glycogen synthase kinase-3 (GSK3A per assay name; protocol says GSK3B); assay: GSK3 binders on small-molecule microarrays, primary screen, biochemical, small-molecule microarray, 635 nm fluorescence, GSK3A (AID 1103); conditions: small-molecule microarray binding, fluorescence 635 nm; higher = more signal; note: the record names both GSK3A and GSK3B

Compound	composite z-score
COCCOC(=O)N1C(=O)[C@@]2(c3cc(C#CC4=CCCCC4)ccc31)[C@H](c1ccccc1OCCO)N1[C@H](c3ccccc3)[C@H](c3ccccc3)OC(=O)[C@H]1[C@@H]2C(=O)N1CCCCCCC1	1.26
CN(C)C(=O)[C@]1(CCS(=O)(=O)c2ccccc2)N=C(c2ccc(OCCCO)cc2)O[C@@H]1c1ccccc1N=[N+]=[N-]	0.581
CC(=O)NCCCC[C@@H]1NC(=O)[C@H]2C[C@@H](C(=O)NCCCC[N+](C)(C)C)[C@@H](c3cccc(OCCO)c3)N2C1=O	0.536
O=C1C2C=CC(C(O)c3ccc(Br)cc3)N(Nc3ccccc3F)C2C(=O)N1c1ccccc1 (centres undefined)	0.235
